biological target: WDR5 (Homo sapiens, UniProt P61964)
Parameter: pKd
Answers are plain numbers, as −log10 of the molar value.

Qu. Requested read-out: pKd. Entry: CN1CCN(c2ccc(-c3cccc(CN4CCN(CCNC(=O)CCCCCCCNc5cccc6c5C(=O)N(C5CCC(=O)N(C)C5=O)C6=O)CC4)c3)cc2NC(=O)c2c[nH]c(=O)cc2C(F)(F)F)CC1 (stereo not shown)
Ans. 6.89
